Biological target: RIPK3 (Homo sapiens)
Sequence (Q9Y572 whole entry, species assumed): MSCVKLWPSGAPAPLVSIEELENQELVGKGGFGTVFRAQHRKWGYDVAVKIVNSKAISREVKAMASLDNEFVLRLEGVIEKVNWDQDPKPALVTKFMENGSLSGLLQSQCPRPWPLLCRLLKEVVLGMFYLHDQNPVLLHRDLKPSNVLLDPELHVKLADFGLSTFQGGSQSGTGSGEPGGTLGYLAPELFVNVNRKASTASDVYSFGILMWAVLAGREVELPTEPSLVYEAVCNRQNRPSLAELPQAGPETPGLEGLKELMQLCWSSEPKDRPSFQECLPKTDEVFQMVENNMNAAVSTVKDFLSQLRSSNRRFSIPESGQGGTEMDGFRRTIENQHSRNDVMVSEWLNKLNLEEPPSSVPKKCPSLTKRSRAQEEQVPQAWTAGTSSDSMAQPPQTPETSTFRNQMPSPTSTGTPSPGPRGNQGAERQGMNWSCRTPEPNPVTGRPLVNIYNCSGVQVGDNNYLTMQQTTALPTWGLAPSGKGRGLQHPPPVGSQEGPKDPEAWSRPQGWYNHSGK
Assay: Inhibition of recombinant RIPK3 (ADP-Glo kinase assay)
Type: biochemical
Conditions: recombinant RIPK3, ADPGlo; read-out: Inhibition of RIPK3, RIPK3 protein IC50
assay-metric: IC50 (nM)
Entry rule: numbers only, all in nM.

compound | assay-metric | measured-value
CN1CCN(c2cccc(Nc3cc4c(cn3)cc(-c3cccc(O)c3)c(=O)n4C)c2)CC1 [compound 38] | IC50 | 10
CN1CCN(c2cccc(Nc3cc4c(cn3)cc(-c3ccccc3Cl)c(=O)n4C)c2)CC1 [compound 37] | IC50 | 50
CCN(CC)CCOc1ccc(Nc2ncc3cc(-c4c(Cl)cccc4Cl)c(=O)n(CC(C)C)c3n2)cc1 [compound 10] | IC50 | 80
CCN(CC)CCOc1ccc(Nc2ncc3cc(-c4c(Cl)cccc4Cl)c(=O)n(CCOC)c3n2)cc1 [compound 6] | IC50 | 20
Cc1ccc(-c2cc3cnc(Nc4cccc(S(C)(=O)=O)c4)nc3n(C)c2=O)c(Cl)c1 [compound 20] | IC50 | 280

Look up IC50 for this compound: CCN(CC)CCOc1ccc(Nc2ncc3cc(-c4ccccc4)c(=O)n(CC)c3n2)cc1 [compound 4] 300

* * *

molecules and their reported pIC50
Target: UniProt Q9Y572
Experiment: RIPK3 binding in live HEK cells (NanoBRET target engagement)
Design: expressed in transfected cells; host or cells: HEK cells
// pIC50: -log10(molar conc.)

Look up pIC50 for this molecule: `CCN(CC)CCOc1ccc(Nc2ncc3cc(-c4c(Cl)cccc4Cl)c(=O)n(CCOC)c3n2)cc1` 7.70

Look up pIC50 for this molecule: `CN1CCN(c2cccc(Nc3cc4c(cn3)cc(-c3cccc(O)c3)c(=O)n4C)c2)CC1` 7.70

Look up pIC50 for this molecule: `Cc1ccc(-c2cc3cnc(Nc4cccc(S(C)(=O)=O)c4)nc3n(C)c2=O)c(Cl)c1` 6.02

Look up pIC50 for this molecule: `CN1CCN(c2cccc(Nc3cc4c(cn3)cc(-c3ccccc3Cl)c(=O)n4C)c2)CC1` 7.10

* * *

Target: human ALK2 (Homo sapiens, UniProt Q04771)
Sequence (Q04771 21-509): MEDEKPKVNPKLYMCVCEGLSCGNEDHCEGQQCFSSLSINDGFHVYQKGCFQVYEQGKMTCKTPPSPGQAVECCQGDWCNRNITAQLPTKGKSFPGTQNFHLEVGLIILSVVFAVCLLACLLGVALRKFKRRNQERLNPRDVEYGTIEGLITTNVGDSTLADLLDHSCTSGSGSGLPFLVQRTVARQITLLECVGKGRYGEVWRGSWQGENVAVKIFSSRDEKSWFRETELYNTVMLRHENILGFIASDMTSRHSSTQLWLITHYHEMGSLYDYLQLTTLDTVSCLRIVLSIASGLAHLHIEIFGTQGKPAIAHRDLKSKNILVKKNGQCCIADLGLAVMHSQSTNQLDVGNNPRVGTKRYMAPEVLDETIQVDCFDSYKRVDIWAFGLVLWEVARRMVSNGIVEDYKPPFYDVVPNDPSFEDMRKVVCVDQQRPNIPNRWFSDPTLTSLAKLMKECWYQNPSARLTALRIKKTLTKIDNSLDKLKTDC
Experiment: ALK2 enzyme assay (33P-casein)
Type: biochemical
Conditions: 10 μM ATP
assay-metric: IC50 (nM)
Entry rule: numbers only, all in nM.

Request - read-out IC50 | tested on human ALK2 (Homo sapiens, UniProt Q04771) | molecule `CN1CCN(c2cccc(Nc3cc4c(cn3)cc(-c3ccccc3Cl)c(=O)n4C)c2)CC1` 32300

* * *

Test system: TNF/IDN-treated human Hela cells expressing RIPK3
Assay: Protection from necroptosis in TNF/IDN-treated Hela-RIPK3 cells (CellTiter-Glo)
Assay type: cell-based
assay-metric: pIC50
// pIC50: -log10(molar conc.)

Request - read-out pIC50 | tested on TNF/IDN-treated human Hela cells expressing RIPK3 | compound CC(C)S(=O)(=O)c1ccc2nccc(Nc3ccc4scnc4c3)c2c1 [GSK′872, reference compound] 5.49

* * *

Test system: LPS/IDN-treated murine RAW264.7 macrophages
Test: Protection from necroptosis in LPS/IDN-treated RAW264.7 macrophages (CellTiter-Glo)
Assay type: cell-based
Details: Mus musculus, RAW264.7, read-out: Protection from necroptosis, RAW264.7 cells IC50
assay-metric: pIC50
// pIC50: -log10(molar conc.)

Look up pIC50 for this molecule: `CCN(CC)CCOc1ccc(Nc2ncc3cc(-c4ccccc4)c(=O)n(CC)c3n2)cc1` 6.74

The measured values listed here are drawn from patent US12516055B2.
